z-score for assorted compounds
Assay: JC-1 mitochondrial signal, unstimulated MM1S myeloma – cell-based, JC-1 fluorescence, 24 h, 100 nL compound, profiling panel (AID 1170); also: test concentration not given here
Conditions: MM1S mitochondrial potential, higher = more signal

Query Smiles	Endpoint Name	Readout Value
O=C1C[C@@](C(=O)NCc2ccccc2)(c2ccc([N+](=O)[O-])cc2)[C@@H](c2ccc(CO)cc2)N1CC12CC3CC(CC(C3)C1)C2	z-score	-1.2

Query string: Need z-score, item COC(=O)[C@@]1(Cc2ccccc2)[C@H]2c3cc(C(=O)N(C)C)n(Cc4ccc(OC)c(OC)c4)c3C[C@H]2CN1C(=O)c1ccccc1
Result string: -1.14

Query string: Need z-score, item O=c1cccc(-c2ccccc2Cl)o1
Result string: 0.304

* * *

Molecular target: Torsin-1A (Homo sapiens) (UniProt O14656)
Sequence (O14656 whole entry, looked up): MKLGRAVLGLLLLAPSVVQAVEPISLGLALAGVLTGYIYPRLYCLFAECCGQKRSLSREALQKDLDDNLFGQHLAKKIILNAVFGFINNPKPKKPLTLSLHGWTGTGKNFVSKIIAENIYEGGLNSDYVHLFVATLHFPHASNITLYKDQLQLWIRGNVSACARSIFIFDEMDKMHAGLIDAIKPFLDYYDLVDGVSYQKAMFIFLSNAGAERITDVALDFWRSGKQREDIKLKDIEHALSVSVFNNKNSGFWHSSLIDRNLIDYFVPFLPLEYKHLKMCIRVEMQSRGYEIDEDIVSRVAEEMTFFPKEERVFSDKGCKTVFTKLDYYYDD
Experiment: torsin A mutant lysate binding on microarrays – cell lysate, small-molecule microarray, COS7 lysate, 635/667 nm fluorescence, primary screen (AID 1150);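 also: score pools 667 nm emission and signal to noise measuring lysate protein binding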
Conditions: COS7 hTOR1A mutant lysate, 635 nm fluorescence, higher = more signal
composite z-score for assorted compounds
Form: value (number only, do not type unit).

For orientation, consider the following solved cases.
Compound	composite z-score
COC(=O)[C@H](Cc1ccccc1)N[C@H](/C=C/C1CC1)[C@@H](O)Cc1ccccc1	-0.533
O=C1OCCC/C=C\[C@H]2OC34C=CCN(c5ccc6ccccc6c5)C(=O)[C@H]3N(CCCCCO)C(=O)[C@@H]4C12 (some centres undefined)	-1.51
O=C1C2C=CC(C(O)c3ccc4c(c3)OCO4)N(Nc3ccc([N+](=O)[O-])cc3)C2C(=O)N1c1ccccc1 (centres undefined)	0.17

Continue with the next compound.
Query string: Need composite z-score, item C=C(/C(=C/C[C@H](OC(=O)c1ccncc1)c1ccc(OCCO)cc1)c1cc(C(=O)OC)ccc1OC)C(C)C
Result string: 0.284

* * *

composite z-score for assorted compounds
Tested on: Sonic hedgehog protein (Shh)
Assay: Sonic hedgehog microarray binding compounds – biochemical, small-molecule microarray, 635/667 nm fluorescence, primary screen (AID 1151);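 also: Shh protein binding to compounds spotted on small-molecule microarray slides; score combines spot fluorescence intensity with signal-to-noise across triplicate slides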
Conditions: 635 nm fluorescence, higher = more signal
Form: value (number only, do not type unit).

For orientation, consider the following solved cases.
Compound	composite z-score
O=C1NC(=O)C2C1C=CC(C(O)c1ccc(-c3ccccc3)s1)N2Nc1ccc(Cl)cc1Cl (stereo not given)	-0.82
CC1CC/C=C\[C@H]2OC34C=CCN(Cn5nnc6ccccc65)C(=O)[C@H]3N(CCCCCO)C(=O)[C@@H]4C2C(=O)O1 (stereo not given in full)	-0.124
COc1ccc(CCNC(=O)[C@@]2(C)c3ccccc3C(=O)N(c3ccc(C)cn3)[C@H]2c2ccc(CO)cc2)cc1	-0.797
Cc1c(NC(=O)/C(C#N)=C/c2cccc([N+](=O)[O-])c2)c(=O)n(-c2ccccc2)n1C	0.478
Cc1ccc([C@H]2C(C(=O)O)=CCN2S(=O)(=O)c2ccc(C)cc2)cc1	0.0688
O=C1O[C@@H](c2ccccc2)[C@@H](c2ccccc2)N2[C@@H](c3ccc(OCCO)cc3)[C@]3(C(=O)Nc4ccc(C#CC5=CCCCC5)cc43)[C@@H](C(=O)N3CCCCCCC3)[C@H]12	1.37

Query string: API: value(readout= composite z-score, system= Sonic hedgehog protein (Shh), query= O=C1O[C@H](c2ccccc2)[C@H](c2ccccc2)N2[C@H]1[C@@H](C(=O)N1CCN(c3ncccn3)CC1)[C@]1(C(=O)Nc3ccc(C#CC4=CCCCC4)cc31)[C@H]2c1ccccc1OCCO )
Result string: 1.79
